Where these numbers come from: PubChem BioAssay (NCI)

System: UO-31 renal
Measurement description: NCI tumour cell line growth inhibition, 48 h
Item-by-item account of TGI
Enter your answer as a number in µM; do not include the unit.

Reference set, count: 2
{"Compound": "O=[N+]([O-])c1cnc(Sc2ccncn2)s1", "Tested system": "UO-31 renal", "Units": "µM", "Meas value": 3.2}
{"Compound": "CN(C)CCNc1ccc([N+](=O)[O-])c2sc3ccccc3c(=O)c12", "Tested system": "UO-31 renal", "Units": "µM", "Meas value": 30.8}

TGI recorded for this compound, C/C=C/C(C#N)(/C=C/c1ccccc1)OP1(=O)OC(c2ccccc2)C(C)N1C (stereo unspecified) , is 32.6

Short answer for O=C(NCCNc1nccc(-c2c(-c3cccc(O)c3)nc3sccn23)n1)c1ccccc1O : TGI was 19.8

Reported TGI for O=C(Nc1ccc(F)cc1F)c1cc(I)ccc1O was 6.11

Measured TGI, CC1=NN(c2nc(N)nc(/C(C#N)=C/c3ccccc3O)n2)C(C)(C)C1 : 36.5

Item: C/C(=C\CO)CC/C=C(\C)CNc1c(F)c(F)c(F)c(F)c1F | TGI: 80.8

Looking up O=C1C=Cc2c(Br)sc(Br)c21 , I see its TGI listed as 39.2

----------
Parameter TGI: see the listing below.
System: CCRF-CEM leukemia
Measurement description: NCI tumour cell line growth inhibition, 48 h

Guide cases for TGI, answers given:
{"Molecule": "CCN(CC)c1ccc2cc(C(N)=O)c(=N)oc2c1", "Tested system": "CCRF-CEM leukemia", "TGI": "> 100 µM"}
{"Molecule": "CCc1ccc2c(c1)C(=O)c1c-2n(CCCBr)c(=O)c2cc([N+](=O)[O-])ccc12", "Tested system": "CCRF-CEM leukemia", "TGI": "> 50 µM"}
{"Molecule": "COc1ccccc1CCN1CCN(CCCc2ccccc2)CC1", "Tested system": "CCRF-CEM leukemia", "TGI": "> 100 µM"}
{"Molecule": "CCCCCCNC(=O)C(C)C1CCC2(C)C=CC(=O)C(C)=C2C1O (stereo not drawn)", "Tested system": "CCRF-CEM leukemia", "TGI": "> 100 µM"}
{"Molecule": "COC(=O)NC(Nc1ccccn1)(C(F)(F)F)C(F)(F)F", "Tested system": "CCRF-CEM leukemia", "TGI": "> 100 µM"}
{"Molecule": "O=C(NC(=S)Nc1ccc(Br)cc1)c1ccc2c(c1)Sc1ccccc1S2", "Tested system": "CCRF-CEM leukemia", "TGI": "54.1 µM"}
{"Molecule": "CSc1ccccc1C#C/C=C\\C#Cc1ccccc1N1CCCC1=O", "Tested system": "CCRF-CEM leukemia", "TGI": "> 50 µM"}
{"Molecule": "CC1(C)COC(c2ccc(C(F)(F)F)cc2C(O)c2ccc3ccccc3c2)=N1 (stereo not drawn)", "Tested system": "CCRF-CEM leukemia", "TGI": "> 100 µM"}
{"Molecule": "O=C1NC(N/N=C/c2ccccc2)=N/C1=C\\c1ccco1", "Tested system": "CCRF-CEM leukemia", "TGI": "> 100 µM"}
{"Molecule": "Cc1cc(=O)n2[nH]c(-c3ccc(C(C)(C)C)cc3)cc2n1", "Tested system": "CCRF-CEM leukemia", "TGI": "> 100 µM"}

Cc1ccc(Cc2n[nH]c(=O)[nH]2)cc1 yielded TGI of > 100 µM

The molecule identified as Nc1ccccc1-c1noc(=O)[nH]1 registered its TGI at > 100 µM

Quick note, TGI for O=C1NC2(CCCCC2)C2CCCCC(O)C12 (stereo not drawn) landed at > 100 µM
